- experimentDescription: folding stability dG unfold from trypsin proteolysis; higher = more stable
Below is a list of entries, each paired with its recorded folding stability dG unfold value.
Respond numerically; units are kcal/mol and should not be typed.

// solved cases for folding stability dG unfold follow
sequenceData	folding stability dG unfold, kcal/mol
SAGMELKVEIVAPKEVLLEKVKELEATIKKAFPKVKVEVEAKIEPLEGDEWKATVVIKIEPLPEDEPAESAG [r5_936_TrMRF]	3.87
SAGGDVTIEWFPMSEEEMKKMMEEMPPNTIMIPFPGNGYFIPVRVPDDPEEADKIAEEIRKWLEQLPSAGGS [r16_311_TrROS]	1.81
SAGGSAGGSAGGGMTTTKTEVSFSPAGGLVTTKSTERLPGTGELKEVTSVTPLASSGTTSAGGSAGGSAGGS [r10_296_JUSTAS]	0.0156
SAGGSAGGSAGKLPPGAKVEEVFEVEIEVTYLNPDTGEEVEKEKITVRVVKVDGKLVIEFSAGGSAGGSAGG [r11_415_TrROS_Hall]	1.39
SAGGSAGGSAGGKEITIMMPSPEAIKKLLPPGWKITNIEPIGRDPEDGYPYYMITFKPDSAGGSAGGSAGGS [r10_256_TrROS]	1.43
SAKKTITLTITNEDGSTFTITITDNKITITNKDNGLVAEAEILPDGTIKLKIYNKNGELIAEITLKIKDSAG [r14_213_TrROS_Hall]	3.18

Sample SAGMVEVTVTIIPKKVKDKWVNEAVVSITVPGGPTSTITMPFGSKEEAIKYLKEKGLEVSEENVSVEIESAG [r5_233_JUSTAS] ; folding stability dG unfold observed: 2.31

// folding stability dG unfold value for SLSEEELKKKLEELKKKLKPPKPKVKKVKVKIKNKETNEEIEEEVEIVETPDTVYIYNKKTGKLFKFKIKSA [r9_548_TrROS_Hall] : 0.935

Looking up SAKLAEEIAKKILPEVKEVKILKIEVKKDPKSKFKVIKIEMLVKMPKGEKKIKIEIKPGKPKIKIIPLDSAG [r14_397_TrMRF] , I found its folding stability dG unfold recorded as 2.16

Form field folding stability dG unfold, entry SAGGVITAEQLRDLVKTLPPDYTIRVKVYYSTSTEEYTITPDNPIKFPPNAPTETITRIEVVEISPDSAGGS [r16_97_TrMRF] : 3.87

Record summary for SAKVYRTKDGKEVKVEKKKVKVKTIEIEIEIEMPKELEEKVKKLAEELAKKLAEELNLPPGAKIKITVRSAG [r14_453_TrROS_Hall] : reported folding stability dG unfold = 2.54

---

- experimentDescription: folding stability dG unfold (combined trypsin and chymotrypsin); higher = more stable
Class 1 (yes): folding stability dG unfold at least 2 kcal/mol. Class 0 (no): folding stability dG unfold below 2 kcal/mol.

Data request: Threshold query (folding stability dG unfold >= 2 kcal/mol) on SAGGSAGGSAGGSSTAVIRRPETGEEHTFDLPEDATEEDIRARLEAAGFPPGSEIVEIVESAGGSAGGSAGG [r7_70_JUSTAS]
Data returned: 0 (no)

---

- experimentDescription: folding stability dG unfold from chymotrypsin proteolysis; higher = more stable
Reported folding stability dG unfold values for a set of sequences
The reply should contain only the number, in kcal/mol.

Examples with their reported folding stability dG unfold follow.
sequenceData	unitInfo	folding stability dG unfold
SAGLPIPEGATVKTLESSESVEGNKTVKTDKIIVTFPDGSTKEVEVVTTYDPNGNPTTTYIVGNKKIPLSAG [r5_507_JUSTAS]	kcal/mol	1.19
SAMKTEVIEFENFTIVVEELPDGSKKIIILFENPEKAKEALEKNPWIKEFIAEAEKEGYDVELAVVEPESAG [r14_873_TrMRF]	kcal/mol	3.31
SAGMTEVAKEIADTLAEQFPPGYKIDDIKVQPLPDNMFRVPITIKRRDPNGKPRGPRQIEIWIPPEQFSAGG [r19_28_TrROS]	kcal/mol	0.21
SMKIYKTKEEAEKAAKETGKKVIVIKKGMSLEELLELLKKLKGLKEGQKVILVIQNEDGETYVIVLEIKPSA [r9_314_TrROS_Hall]	kcal/mol	1.43

So, SAGGGMGRIPLYGEERVEEIAAEPDVVSVEEDPETGRTYVYFERPDGYYSFTRDNETGEITEKTPLPSAGGS [r8_251_JUSTAS] ? Its folding stability dG unfold was -0.523

For reference, reported folding stability dG unfold for SMGVKIEIDKEIIEKAIEEGKTFEADAKIKIEAYNPKTGKKIAEAEKIVKIRLEIEPPKAEPDPETGKPESA [r9_396_TrMRF] stands at 0.36

Record SAGGSAGGSEDKYIIRVEVLLPNKKRTYVLEEPEKGIEAFKKRLEKEYPDEPIVEVRIEVLPASAGGSAGGS [r12_429_TrMRF] , field folding stability dG unfold: 1.37

---

- experimentDescription: folding stability dG unfold (combined trypsin and chymotrypsin); higher = more stable
Grouping by measured folding stability dG unfold is done with the following cut points: bottom = under 0.1 kcal/mol, middle = from 0.1 kcal/mol up to 3 kcal/mol, top = 3 kcal/mol and over

Example cases with answers are listed next.
sequenceData	className
SAGLIKIERTGDKLTITIPLKGAPPGAQVRIMVFTDGKVEEHWIPPGKEVEITIPPDNIHIFIQIYPPDSAG [r5_867_TrROS]	top
SAGGTVTTEEVDDATYITVTKPSGETLTITAPALPDDTYLVTVYDPKTGKSTTKTVSSLDEAIKLLGSAGGS [r8_230_JUSTAS]	middle
SAGGSAGGSAGWFTIMFKADSPEKVEEIVDELAQENGLEVEIERNPGEPGYIMITIKPPPSAGGSAGGSAGG [r11_797_TrROS]	middle
SAGGSAGGSAGGGMAITTRPGSSEVSTTPVPSDVTASTTTPLASGEPVEVTYERVGDPTLSAGGSAGGSAGG [r7_21_JUSTAS]	bottom
SAGGMTLDELRALLAAGKVTIEPVAPDRWLVTVRGPDGEEFTFEFESLEELLDALRAIPGLEVEVRPVSAGG [r13_600_TrROS_Hall]	top

Data request: Hi there! Could you help me figure out the category for SAGGSAGGGNWERVEFTFTKRVYDPKNGKPMKDVMVEIDVYRDPNEGALEIEIEMPPGFDYIMISAGGSAGG [r6_206_TrROS] please?
Data returned: top

Data request: Using the reported folding stability dG unfold, which band applies to SAGSVETFEDPEVGRVVIVPLPGGEVLTIELPPDSITMTLTSPKGGESVTITKKMKPGEEEELIKELASSAG [r5_820_JUSTAS] ?
Data returned: bottom

Data request: Each sequence maps to one class by folding stability dG unfold. Which class for SAGGSAGGSMIVVPLERELDPSEPGLTKEEVKAILEAKGLDVVDIKVSTDPAKGLTRAVAKVKSAGGSAGGS [r12_1052_JUSTAS] ?
Data returned: bottom

Data request: Sort into band: SAGGGPMPKPVEEVVEEEEDGLRVTTRITYLPTSSTTVVRTTRTVFDPRNGRPLETEELTETVPPGSSAGGS [r16_709_JUSTAS]
Data returned: bottom

Data request: Which bin, given its folding stability dG unfold, does SAGGSAGGSAGGNYFMMVVLEIRLPPELKGMSPEEWLKKNGYEVTEIEIKGIYPFPPPDGSAGGSAGGSAGG [r7_62_TrROS] occupy?
Data returned: middle

Data request: Category lookup for the sequence SAGGSAGGSVEIKSITTVTDPNSSANPTTITVKRDPAKGVLGEEVKAIAKALEEAGYPTTFGTSAGGSAGGS [r12_172_JUSTAS]
Data returned: bottom

---

- experimentDescription: folding stability dG unfold (combined trypsin and chymotrypsin); higher = more stable
Rule: folding stability dG unfold of 2 kcal/mol or more gives criterion met; anything lower gives criterion not met.

Data request: Does SAGGSPKIQIDQYNPNDYYVRIEYPGNGNTHEIPFRGSKGELAKKLEDEAEEHNMPIDVEIYPPDDSAGGSA [r2_161_TrROS] have a reported folding stability dG unfold of at least 2 kcal/mol?
Data returned: criterion not met

Data request: Item SAGGSAGGSAPPYKYVQIELWIPGPIEEIADELQDNFGIRSIDVKRDPENGWVRADIYFQFPSAGGSAGGSA [r18_275_TrROS] with folding stability dG unfold of 2 kcal/mol or above?
Data returned: criterion met

Data request: Could you verify whether the entry SAGMLTLRVVLPKEEAEARARALAEELRRRLGLPPGAKIEVKVVEYDEETGEVVVEVTIEVELPPGVEPSAG [r5_537_TrROS_Hall] shows folding stability dG unfold of no less than 2 kcal/mol?
Data returned: criterion met

Data request: Is folding stability dG unfold at least 2 kcal/mol? Consider SAGGSAGGSYKLGSKLIKEVTSEATPGPSTLETITLEDKTYPITLVGDSLNISPELKKAIELNSAGGSAGGS [r20_92_JUSTAS]
Data returned: criterion not met

Data request: Hello, I need to know if SAGGSAGGSAGMKYIEEAKAKAKPDKKLKITIPPSLPVEEVRKELLEEVPIDDVEFIKNLSAGGSAGGSAGG [r11_524_JUSTAS] has measured folding stability dG unfold not below 2 kcal/mol. Thanks!
Data returned: criterion not met

Data request: Is the recorded value of folding stability dG unfold equal to or greater than 2 kcal/mol for this sequence? SAGPVTIPIFYRVPPGEPMTPEAKEFAIELAKYIARLFPPGYKIEIDSIEWERHPNYYYFRVTIEIEPPSAG [r5_121_TrROS]
Data returned: criterion met

Data request: In plain terms: is recorded folding stability dG unfold at least 2 kcal/mol for SAGGSAGGSAGGPKTVRIVEYDPETQRVVIELEDGSKVVIEVPPGMSVEELKGKTLTVEPSAGGSAGGSAGG [r7_296_TrROS_Hall] ?
Data returned: criterion not met

Data request: Confirm if folding stability dG unfold reported for the sequence SAGGSAGGSAGAPDEPIQITMRLKYPDGQKREHNTPFPPGKDIEIKNMPPGAKIENIEITSAGGSAGGSAGG [r11_181_TrROS] is 2 kcal/mol or above.
Data returned: criterion not met

Data request: Check if folding stability dG unfold >= 2 kcal/mol (inclusive). Item: SGFTFSTLIAPDESLSITVKEPNSSTTTSFDFTVDPATGAVSATATTTPPDGKTQTFSVTIPVSPGAAALSA [r9_770_JUSTAS]
Data returned: criterion not met

Data request: Would you say SAGGPDELELVIVFPAEALGTGEGGEPYTAEDIAEAIKKELPKDEVEVEIAEIDEETGEIVVTVKVPSAGGS [r16_284_TrMRF] shows folding stability dG unfold at minimum 2 kcal/mol?
Data returned: criterion not met

Data request: Would you say SAGMKVVRTRTVWADDSDNPTPLAPEVELVRDAPPTFPLPVTVTTPDGRPYTGTLIALDPDREGLVLGGSAG [r5_735_TrMRF] shows folding stability dG unfold at minimum 2 kcal/mol?
Data returned: criterion not met

Data request: Please tell me: is the sequence SAGRKIEIHVPYDELRELFGPGQTAEDLADWIAQEGYQIEDIEVEPEPNPNNGKKYYRVTFEVKPPKKSAGG [r19_376_TrROS] at or over 2 kcal/mol in terms of folding stability dG unfold?
Data returned: criterion not met
